Attribution: ChEMBL document CHEMBL4483862

- Tested on: Plasmodium berghei
- Measurement protocol: Luciferase/luciferin-expressing antifolate-resistant parasites were used to infect a culture of HepG2 cells that were pre-incubated with compounds. Infected hepatocytes emit light due to the luciferase reaction. Assay results are presented as the percent inhibition of light emission compared to control. […]
- Format: functional
- Condition set: sporozoite, HEPG2TOX_HILL_SLOPE 1.86, HEPG2TOX_R_SQUARED 0.968, PBLUC_HILL_SLOPE 3.1, PBLUC_R_SQUARED 0.491, read-out: LUCIFERASE INFECTION ASSAY - IC50
Readout: IC50

1) Cc1ccc(-c2nc(COC(=O)Cc3ccccc3[N+](=O)[O-])cs2)cc1; 6.23 µM

----------
- System: Plasmodium berghei
- Measurement protocol: Luciferase/luciferin-expressing antifolate-resistant parasites were used to infect a culture of HepG2 cells that were pre-incubated with compounds. Infected hepatocytes emit light due to the luciferase reaction. Assay results are presented as the percent inhibition of light emission compared to control. […]
- Format: functional
- Condition set: sporozoite, PBLUC_HILL_SLOPE 6.32, PBLUC_R_SQUARED 0.624, read-out: LUCIFERASE INFECTION ASSAY - IC50
Readout: IC50

1. O=C(Nc1ccccc1)Nc1cncc(C#Cc2ccccc2)c1; 7.23 µM

----------
- Test system: Plasmodium berghei
- Measurement protocol: Luciferase/luciferin-expressing antifolate-resistant parasites were used to infect a culture of HepG2 cells that were pre-incubated with compounds. Infected hepatocytes emit light due to the luciferase reaction. Assay results are presented as the percent inhibition of light emission compared to control. […]
- Format: functional
- Condition set: sporozoite, HEPG2TOX_HILL_SLOPE 1.69, HEPG2TOX_R_SQUARED 0.759, PBLUC_HILL_SLOPE 12.9, PBLUC_R_SQUARED 0.198, read-out: LUCIFERASE INFECTION ASSAY - IC50
Readout: IC50

1) COc1ccc(C(=O)N(c2nc3ccccc3s2)c2c(C)cccc2C)cc1; 9.04 µM

----------
- Test system: Plasmodium berghei
- Measurement protocol: Luciferase/luciferin-expressing antifolate-resistant parasites were used to infect a culture of HepG2 cells that were pre-incubated with compounds. Infected hepatocytes emit light due to the luciferase reaction. Assay results are presented as the percent inhibition of light emission compared to control. […]
- Assay type: functional
- Condition set: sporozoite, PBLUC_HILL_SLOPE 15.5, PBLUC_R_SQUARED 0.302, read-out: LUCIFERASE INFECTION ASSAY - IC50
pIC50: −log10 of the molar value.
Readout: pIC50

1) COc1cc(-c2ccc3ncc(-c4cccc(OC(F)(F)F)c4)n3n2)cc(OC)c1OC; 5.49

----------
- System: Plasmodium berghei
- Measurement protocol: Luciferase/luciferin-expressing antifolate-resistant parasites were used to infect a culture of HepG2 cells that were pre-incubated with compounds. Infected hepatocytes emit light due to the luciferase reaction. Assay results are presented as the percent inhibition of light emission compared to control. […]
- Assay type: functional
- Condition set: sporozoite, PBLUC_HILL_SLOPE 5.07, PBLUC_R_SQUARED 0.236, read-out: LUCIFERASE INFECTION ASSAY - IC50
pIC50: −log10 of the molar value.
Readout: pIC50

1. COc1cc(Nc2ccn3ncc(-c4ccc(OC(F)(F)F)cc4)c3n2)cc(OC)c1OC; 5.43

----------
- Test system: Plasmodium berghei
- Measurement protocol: Luciferase/luciferin-expressing antifolate-resistant parasites were used to infect a culture of HepG2 cells that were pre-incubated with compounds. Infected hepatocytes emit light due to the luciferase reaction. Assay results are presented as the percent inhibition of light emission compared to control. […]
- Assay type: functional
- Condition set: sporozoite, PBLUC_HILL_SLOPE 0.354, PBLUC_R_SQUARED 0.256, read-out: LUCIFERASE INFECTION ASSAY - IC50
Readout: IC50

1) COc1ccc2ccccc2c1/C=N/n1c(-c2ccc(Br)s2)cs/c1=N\c1ccc(Cl)cc1; > 10 µM

----------
- System: Plasmodium berghei
- Measurement protocol: Luciferase/luciferin-expressing antifolate-resistant parasites were used to infect a culture of HepG2 cells that were pre-incubated with compounds. Infected hepatocytes emit light due to the luciferase reaction. Assay results are presented as the percent inhibition of light emission compared to control. […]
- Format: functional
- Condition set: sporozoite, PBLUC_HILL_SLOPE 1.53, PBLUC_R_SQUARED 0.573, read-out: LUCIFERASE INFECTION ASSAY - IC50
Readout: IC50 (µM)

1) COC(=O)C1=CC2C3C(=O)N(c4cc(Cl)cc(Cl)c4)C(=O)C3C1C1C(=O)N(c3cc(Cl)cc(Cl)c3)C(=O)C21 (stereo unspecified); 2.18

----------
- Tested on: Plasmodium berghei
- Measurement protocol: Luciferase/luciferin-expressing antifolate-resistant parasites were used to infect a culture of HepG2 cells that were pre-incubated with compounds. Infected hepatocytes emit light due to the luciferase reaction. Assay results are presented as the percent inhibition of light emission compared to control. […]
- Type: functional
- Condition set: sporozoite, HEPG2TOX_HILL_SLOPE 3.72, HEPG2TOX_R_SQUARED 0.763, PBLUC_HILL_SLOPE 12.8, PBLUC_R_SQUARED 0.291, read-out: LUCIFERASE INFECTION ASSAY - IC50
Readout: IC50 (µM)

1. O=C(/C=C/c1cc([N+](=O)[O-])ccc1Cl)c1ccc(N2CCOCC2)c(F)c1; 8.87

----------
- Test system: Plasmodium berghei
- Measurement protocol: Luciferase/luciferin-expressing antifolate-resistant parasites were used to infect a culture of HepG2 cells that were pre-incubated with compounds. Infected hepatocytes emit light due to the luciferase reaction. Assay results are presented as the percent inhibition of light emission compared to control. […]
- Format: functional
- Condition set: sporozoite, HEPG2TOX_HILL_SLOPE 9.58, HEPG2TOX_R_SQUARED 0.779, PBLUC_HILL_SLOPE 13.3, PBLUC_R_SQUARED 0.143, read-out: LUCIFERASE INFECTION ASSAY - IC50
Readout: IC50

1) Oc1ccc(Br)cc1/C=N/NC(=S)NC1CC2CCC1C2 (stereo unspecified); 7.57 µM

----------
- System: Plasmodium berghei
- Measurement protocol: Luciferase/luciferin-expressing antifolate-resistant parasites were used to infect a culture of HepG2 cells that were pre-incubated with compounds. Infected hepatocytes emit light due to the luciferase reaction. Assay results are presented as the percent inhibition of light emission compared to control. […]
- Type: functional
- Condition set: sporozoite, FFLUC_HILL_SLOPE 3.55, FFLUC_R_SQUARED 0.719, HEPG2TOX_HILL_SLOPE 3.57, HEPG2TOX_R_SQUARED 0.945, read-out: LUCIFERASE INFECTION ASSAY - IC50
pIC50: −log10 of the molar value.
Readout: pIC50

1. O=C1COc2ccc(-c3cs/c(=N\CCc4ccccc4)n3/N=C/c3ccc4ncccc4c3)cc2N1; < 5.00

----------
Measured IC90 of individual entries
- Tested on: Plasmodium berghei
- Measurement protocol: Luciferase/luciferin-expressing antifolate-resistant parasites were used to infect a culture of HepG2 cells that were pre-incubated with compounds. Infected hepatocytes emit light due to the luciferase reaction. Assay results are presented as the percent inhibition of light emission compared to control. […]
- Type: functional
- Condition set: sporozoite, read-out: LUCIFERASE INFECTION ASSAY - IC90
Readout: IC90 (µM)

1. Clc1cc2c(c3ncccc13)OCN(C1CCCC1)C2; 2.79
2. CC(C)NC(=O)c1c(NC(=O)c2ccc(Cl)cc2)nc2ccccn12; 1.07
3. COc1ccc(N2CCN(c3nccnc3-c3ccccc3)CC2)cc1OC; 0.978
4. O=C(Nc1ccccc1)Nc1ccc(Sc2cccs2)cc1; 8.94
5. COc1ccc(-c2cc(NC=O)c3ncc(-c4ccc(OC)c(OC)c4)n3c2)c(OC)c1; 0.0326
6. CCCCNC(=O)c1c(NC(=O)c2ccccc2F)nc2ccc(C)cn12; 3.54

----------
- Tested on: Plasmodium berghei
- Measurement protocol: Luciferase/luciferin-expressing antifolate-resistant parasites were used to infect a culture of HepG2 cells that were pre-incubated with compounds. Infected hepatocytes emit light due to the luciferase reaction. Assay results are presented as the percent inhibition of light emission compared to control. […]
- Assay type: functional
- Condition set: sporozoite, PBLUC_HILL_SLOPE 19, PBLUC_R_SQUARED 0.744, read-out: LUCIFERASE INFECTION ASSAY - IC50
Readout: IC50 (nM)

1) Cc1ccnc2nc(C(=O)Nc3cc(C(F)(F)F)ccc3N3CCCCCC3)nn12; 368

----------
- Test system: Plasmodium berghei
- Measurement protocol: Luciferase/luciferin-expressing antifolate-resistant parasites were used to infect a culture of HepG2 cells that were pre-incubated with compounds. Infected hepatocytes emit light due to the luciferase reaction. Assay results are presented as the percent inhibition of light emission compared to control. […]
- Format: functional
- Condition set: sporozoite, FFLUC_HILL_SLOPE 17.5, FFLUC_R_SQUARED 0.699, PBLUC_HILL_SLOPE 3.26, 2.75, PBLUC_R_SQUARED 0.346, 0.719, read-out: LUCIFERASE INFECTION ASSAY - IC50
pIC50: −log10 of the molar value.
Readout: pIC50

1) O=C1NC(c2ccccc2)=C(c2nc3ccccc3s2)C(c2ccc(O)cc2)N1 (stereo unspecified); 5.23
